test system: myasthenogenic antibody mAB 198; experiment: Peptide microarray mimotope screen, binding of mAB 198 to linear and cyclic peptides (fluorescence readout); design: species or system rat; conditions: cyclic mimotopes; binding of mAB 198, relative fluorescent signal after normalization against background
Label 1 (yes) for high-side relative signal [%] (at or above 10%) and 0 (no) for low-side relative signal [%] (below it).

Field: example entries. Status: answers known.
195 (SLRWNPADYHG) [compound 195]    0 (no)
138 (GSLRWNPADYR) [compound 138]    1 (yes)

// query Is relative signal [%] for 113 (LRRNPAD) [compound 113] at or above 10%?
// result 1 (yes)

// query Is relative signal [%] for 163 (RWNPADR) [compound 163] at or above 10%?
// result 1 (yes)

// query Is relative signal [%] for 192 (WNPDDYR) [compound 192] at or above 10%?
// result 0 (no)
